# Tested System: ROCKII (1-543) (Homo sapiens (Human), UniProt O75116)
# Sequence (O75116 1-543, species assumed): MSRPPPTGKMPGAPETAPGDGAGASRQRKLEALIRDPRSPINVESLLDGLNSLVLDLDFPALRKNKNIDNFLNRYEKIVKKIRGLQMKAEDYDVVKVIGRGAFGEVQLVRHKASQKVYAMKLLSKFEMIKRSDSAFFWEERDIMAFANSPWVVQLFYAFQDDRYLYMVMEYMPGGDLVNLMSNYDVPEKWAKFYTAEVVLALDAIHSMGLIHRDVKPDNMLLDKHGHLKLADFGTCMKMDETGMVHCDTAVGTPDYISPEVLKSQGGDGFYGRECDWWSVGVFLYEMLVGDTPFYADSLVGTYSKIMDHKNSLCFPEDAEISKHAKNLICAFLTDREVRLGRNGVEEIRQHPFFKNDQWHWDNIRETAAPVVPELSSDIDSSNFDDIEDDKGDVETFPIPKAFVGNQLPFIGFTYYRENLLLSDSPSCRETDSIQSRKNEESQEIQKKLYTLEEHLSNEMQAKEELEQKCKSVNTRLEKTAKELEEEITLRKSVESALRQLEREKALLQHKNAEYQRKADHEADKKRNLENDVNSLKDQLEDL
# Assay Details: IMAP Assay (Assay 2)
# Type: biochemical
# Test Settings: IMAP fluorescence polarization; 100 μM ATP, 1 nM kinase
Property Label: pIC50
Units for pIC50: none; it is -log10 of a concentration expressed in mol/L.

O=C(Nc1nc2c(s1)C[C@@H](N1CCOCC1)CC2)c1cccc(CNC(=O)c2cc(-c3ccncc3)[nH]n2)c1: 9.47

Query: Which pIC50 reading was recorded for the compound CN1CCc2ccc(NC(=O)c3cccc(CNC(=O)c4cc5ccc(C#N)cc5n4C)c3)cc2C1 ?
Result: 7.77

Query: Now give it for CN1CCc2ccc(NC(=O)c3cccc(CNC(=O)c4cc5ccc(C(N)=O)cc5[nH]4)c3)cc2C1 too.
Result: 9.35

Query: And what about the compound CN1CCc2ccc(NC(=O)c3cccc(CNC(=O)c4cc5cc(C(N)=O)ccc5[nH]4)c3)cc2C1 ?
Result: 9.07

Query: Input CN(C)[C@H]1CCc2nc(NC(=O)c3cccc(CNC(=O)c4csc(-c5cccnc5)n4)c3)sc2C1
Result: 9.49

Query: Further, for CN(C)[C@H]1CCc2nc(NC(=O)c3cccc(CNC(=O)c4cn5cc(C#N)ccc5n4)c3)sc2C1 ?
Result: 8.59

Query: Now this one: N#Cc1ccn2cc(C(=O)NCc3cccc(C(=O)Nc4nc5c(s4)C[C@@H](N4CCOCC4)CC5)c3)nc2c1
Result: 9.28

Query: Also check CN1CCc2nc(NC(=O)c3cccc(CNC(=O)c4cn5ccc(C#N)cc5n4)c3)sc2C1
Result: 7.92

----------
# reported IC50; entries follow
# Tested System: ROCKII (1-543) (Homo sapiens (Human))
# Assay Details: IMAP Assay (Assay 2)
# Assay type: biochemical
# Test Settings: IMAP fluorescence polarization; 100 μM ATP, 1 nM kinase
Note: unit nM is implicit; provide only the numeric part.

Sample records with IC50:
N[C@H]1CCc2nc(NC(=O)c3cccc(CNC(=O)c4cccc(-c5cn[nH]c5)c4)c3)sc2C1: 0.16
Cc1sc(-c2ccncc2)nc1C(=O)NCc1cccc(C(=O)Nc2nc3c(s2)CN(C)CC3)c1: 1.2
O=C(Nc1nc2c(s1)C[C@@H](N1CCOCC1)CC2)c1cccc(CNC(=O)c2csc(-c3ccncc3)n2)c1: 0.93
Cc1c(C(=O)NCc2cccc(C(=O)Nc3ccc4c(c3)CN(C)CC4)c2)nnn1-c1nonc1N: 26
Cc1nc(-c2ccncc2)sc1C(=O)NCc1cccc(C(=O)Nc2ccc3c(c2)CN(C)CC3)c1: 1.25

Query: # lookup: IC50 of CN1CCc2ccc(NC(=O)c3cccc(CNC(=O)c4ccc(-c5cnco5)s4)c3)cc2C1
Result: 1

Query: Same read-out for CN1CCc2ccc(NC(=O)c3cccc(CNC(=O)c4csc(-c5cccnc5)n4)c3)cc2C1 ?
Result: 45

Query: Please give the result for CN1CCc2nc(NC(=O)c3cccc(CNC(=O)c4ccc(-n5ccnc5)cc4)c3)sc2C1 too.
Result: 1.9

Query: Next compound up: CN(C)[C@H]1CCc2nc(NC(=O)c3cccc(CNC(=O)c4csc(-c5ccncc5)n4)c3)sc2C1
Result: 0.87

Query: Check CN1CCc2ccc(NC(=O)c3cccc(CNC(=O)c4ccc(-c5ccncc5)s4)c3)cc2C1 too.
Result: 0.25

Query: Next entry: CN1CCc2ccc(NC(=O)c3cccc(CNC(=O)c4nc(-c5cccnc5)cs4)c3)cc2C1
Result: 72

----------
# Tested System: ROCKII (1-543) (Homo sapiens (Human))
# Assay Details: IMAP Assay (Assay 2)
# Format: biochemical
# Test Settings: IMAP fluorescence polarization; 100 μM ATP, 1 nM kinase
pIC50: −log10 of the molar value.
Cut-off 9 on pIC50, inclusive. At or above means met; below means not met.

Example entries begin here.
CN(C)[C@H]1CCc2nc(NC(=O)c3cccc(CNC(=O)c4ccc(-c5cnco5)s4)c3)sc2C1 [compound 128]: met
CN(C)[C@H]1CCc2nc(NC(=O)c3cccc(CNC(=O)c4cccc(-c5cn[nH]c5)c4)c3)sc2C1 [compound 132]: met
O=C(NCc1cccc(C(=O)Nc2nc3c(s2)C[C@@H](N2CCOCC2)CC3)c1)c1ccc(-c2cnco2)cc1 [compound 162]: met
Cc1cc(-c2ccc(C(=O)NCc3cccc(C(=O)Nc4nc5c(s4)CN(C)CC5)c3)cc2)ccn1 [compound 144]: not met
N[C@@H]1CCc2nc(NC(=O)c3cccc(CNC(=O)c4cccc(-c5cn[nH]c5)c4)c3)sc2C1 [compound 28]: met
N[C@H]1CCc2nc(NC(=O)c3cccc(CNC(=O)c4ccc(-c5csnn5)cc4)c3)sc2C1 [compound 26]: not met
Cc1nc(-c2ccncc2)sc1C(=O)NCc1cccc(C(=O)Nc2nc3c(s2)C[C@@H](N2CCOCC2)CC3)c1 [compound 168]: met
CN1CCc2nc(NC(=O)c3cccc(CNC(=O)c4csc(-c5ccncc5)n4)c3)sc2C1 [compound 22]: not met

Query: In plain terms: is recorded pIC50 at least 9 for CN1CCc2nc(NC(=O)c3cccc(CNC(=O)c4cc(-c5ccncc5)n[nH]4)c3)sc2C1 [compound 74] ?
Result: met

Query: Same for CN1CCc2ccc(NC(=O)c3cccc(CNC(=O)c4ccc(-c5cn[nH]c5)s4)c3)cc2C1 [compound 78]
Result: met

Query: Try CN1CCc2nc(NC(=O)c3cccc(CNC(=O)c4ccc(-c5ccncc5)cc4)c3)sc2C1 [compound 56] next.
Result: met
